Kindly supply the reported absorption maximum values for the records listed here.
- run.description: solvent given as SMILES
- details: in OCC(F)(F)F
State just the number; it will be interpreted in nm.

Q: What value of absorption maximum has been reported for the following molecule? "CCC1=C(C)C2=C(C)c3cc(I)cn3[B-](F)(F)[N+]2=C1C"
Ans: 499.5

Q: What value of absorption maximum has been reported for the following molecule? "CCC1=C(C)C2=C(C)c3cccn3[B-](F)(F)[N+]2=C1C"
Ans: 492

Q: What value of absorption maximum has been reported for the following molecule? "CCC1=C(C)C2=Cc3cc(I)cn3[B-](F)(F)[N+]2=C1C"
Ans: 504

* * *

- run.description: solvent given as SMILES
- details: in CC#N
quantity.name: absorption maximum (nm)
State just the number; it will be interpreted in nm.

Q: What value of absorption maximum has been reported for the following compound? "CCOC(=O)c1c2c3c(ccc(OC)c3c3cc4ccccc4cc13)N(C)C2=O"
Ans: 406

Q: What value of absorption maximum has been reported for the following compound? "F[B-]1(F)n2c(-c3ccccc3)cc(-c3ccccc3)c2N=C2C(c3ccccc3)=CC(c3ccccc3)=[N+]21"
Ans: 643

Q: What value of absorption maximum has been reported for the following compound? "CCOC(=O)COc1ccc(/C=C/c2cc(C)c3n2[B-](F)(F)[N+]2=C(c4[nH]c(C)cc4C)c4ccccc4C2=C3)cc1"
Ans: 670

Q: What value of absorption maximum has been reported for the following compound? "Clc1nc(Nc2ccccc2)nc(Nc2ccc3cc4ccccc4cc3c2)n1"
Ans: 397

Q: What value of absorption maximum has been reported for the following compound? "CCOC(=O)c1c2c3c(ccc(Cl)c3c3cc4ccccc4cc13)N(C)C2=O"
Ans: 408

Q: What value of absorption maximum has been reported for the following compound? "COc1ccccc1C1=C2C(C)=CC(C)=[N+]2[B-](F)(F)n2c(C)cc(C)c21"
Ans: 499

Q: What value of absorption maximum has been reported for the following compound? "C/C(=N\Nc1ccc(C#N)cc1)c1cccc(/C(C)=N/Nc2ccc(C#N)cc2)c1"
Ans: 355

* * *

- run.description: solvent given as SMILES
- details: in ClC(Cl)Cl
Kindly supply the reported absorption maximum values for the records listed here.
State just the number; it will be interpreted in nm.

Q: What value of absorption maximum has been reported for the following compound? "CN1C(=CC2=C([O-])C(=Cc3oc4ccccc4[n+]3C)C2=C(C#N)C#N)C(C)(C)c2ccccc21"
Ans: 655

Q: What value of absorption maximum has been reported for the following compound? "CN1C(=CC2=C([O-])C(=Cc3sc4ccccc4[n+]3C)C2=C(C#N)C#N)Sc2ccccc21"
Ans: 703

Q: What value of absorption maximum has been reported for the following compound? "CCCCCCCCCCCCOc1ccc(C2=C3C(=O)N(CC(OCC)OCC)C(c4ccc(OCCCCCCCCCCCC)c(OCCCCCCCCCCCC)c4)=C3C(=O)N2CC(OCC)OCC)cc1OCCCCCCCCCCCC"
Ans: 496

Q: What value of absorption maximum has been reported for the following compound? "c1cc2cc(c1)c1ccc3c(c1)c1cc(ccc1[C@]14OCCO[C@]31OCCO4)c1ccc3c(c1)c1cc(ccc1[C@]14OCCO[C@]31OCCO4)c1cccc2c1"
Ans: 260

* * *

- run.description: solvent given as SMILES
- details: in CO
quantity.name: absorption maximum (nm)
State just the number; it will be interpreted in nm.

Q: What value of absorption maximum has been reported for the following molecule? "COc1ccc(O)c(C=O)c1"
Ans: 359

Q: What value of absorption maximum has been reported for the following molecule? "C#CCNC1=C2C=CC=[N+]2[B-](F)(F)n2cccc21"
Ans: 405

Q: What value of absorption maximum has been reported for the following molecule? "Cc1cc(C)c(C)c(-c2ccc3cc(C)c(=O)oc3c2)c1C"
Ans: 315

Q: What value of absorption maximum has been reported for the following molecule? "CCC1=C(C)C2=C(C)c3cccn3[B-](F)(F)[N+]2=C1C"
Ans: 495.5

Q: What value of absorption maximum has been reported for the following molecule? "CSc1sc(C(N)=O)c2nnn(C)c(=O)c12"
Ans: 397

Q: What value of absorption maximum has been reported for the following molecule? "COc1cc(N(c2ccccc2)c2ccc(C=C(C#N)C#N)c(OC)c2)ccc1C=C(C#N)C#N"
Ans: 471

Q: What value of absorption maximum has been reported for the following molecule? "O=c1oc2ccccc2cc1-c1nc2ccccc2o1"
Ans: 352

Q: What value of absorption maximum has been reported for the following molecule? "COc1ccc(-c2cc(-c3ccc(C)cc3)c(C#N)c(OC)n2)cc1"
Ans: 338
